protocolSummary: Toxic level was determined
Type: ADME
readoutKind: Toxic level (mM)
Quick reminder: number only, in mM, skip the unit.

Some entries whose results are on file:
{"columns": ["compound", "Toxic level / mM"],
 "data": [
  ["CNc1nn(C2O[C@H](CO)[C@@H](O)[C@H]2O)c2nc[nH]c(=O)c12 (stereo partly drawn)", 1.6],
  ["Cl.N=C(N)c1nn(C2O[C@H](CO)[C@H](O)[C@@H]2O)c2ncnc(O)c12 (stereo partly drawn)", 5]
]}

// recorded Toxic level for CSc1nn(C2O[C@H](CO)[C@@H](O)[C@H]2O)c2nc[nH]c(=O)c12 (stereo partly drawn) : 5
